# Tested on: Rattus norvegicus
# TEST: In vivo inhibition angiotensin I induced pressor effect after po administration of 5 umol/kg in rats
# Type: functional
inhibition in vivo at 5 µmol/kg listing for selected compounds.
Provide the measurement as a number trailed by its unit.

{"COMPOUND": "N=C(N)NCCCC[C@H](OP(=O)(O)CCCCc1ccccc1)C(=O)N1CCC[C@H]1C(=O)O", "inhibition in vivo at 5 µmol/kg": "48%"}

Req: Find the measured inhibition in vivo at 5 µmol/kg of `NCCCC[C@H](OP(=O)(O)CCCCCc1ccccc1)C(=O)N1CCC[C@H]1C(=O)O` and report it.
Resp: 65%

Req: Find the measured inhibition in vivo at 5 µmol/kg of `NCCCC[C@H](OP(=O)(O)CCCCC1CCCCC1)C(=O)N1CCC[C@H]1C(=O)O` and report it.
Resp: 68%

Req: Find the measured inhibition in vivo at 5 µmol/kg of `CCCCCCCCCP(=O)(O)O[C@@H](CCCCN)C(=O)N1CCC[C@H]1C(=O)O` and report it.
Resp: 23%

###

# Tested on: Rattus norvegicus
# TEST: In vivo inhibition angiotensin I induced pressor effect after po administration of 5 umol/kg in rats
# Format: functional
ASSAY METRIC: inhibition in vivo at 5 µmol/kg (%)
Please reply with the bare figure in % and do not write the unit itself.

# example entries with known answers
{"TEST SMILES": "NCCCC[C@H](OP(=O)(O)CCc1ccccc1)C(=O)N1CCC[C@H]1C(=O)O", "inhibition in vivo at 5 µmol/kg [%]": 65}
{"TEST SMILES": "CCCCP(=O)(O)O[C@@H](CCCCN)C(=O)N1CCC[C@H]1C(=O)O", "inhibition in vivo at 5 µmol/kg [%]": 27}
{"TEST SMILES": "CCCCCCP(=O)(O)O[C@@H](CCCCN)C(=O)N1CCC[C@H]1C(=O)O", "inhibition in vivo at 5 µmol/kg [%]": 82}
{"TEST SMILES": "CCCCCP(=O)(O)O[C@@H](CCCCN)C(=O)N1CCC[C@H]1C(=O)O", "inhibition in vivo at 5 µmol/kg [%]": 57}

Let us move to another entry and its inhibition in vivo at 5 µmol/kg.
Req: Find the measured inhibition in vivo at 5 µmol/kg of `CCCCCCCP(=O)(O)O[C@@H](CCCCN)C(=O)N1CCC[C@H]1C(=O)O` and report it.
Resp: 75

###

# SYSTEM TESTED: Angiotensin-converting enzyme (Oryctolagus cuniculus, UniProt P12822)
# Sequence (P12822 whole entry): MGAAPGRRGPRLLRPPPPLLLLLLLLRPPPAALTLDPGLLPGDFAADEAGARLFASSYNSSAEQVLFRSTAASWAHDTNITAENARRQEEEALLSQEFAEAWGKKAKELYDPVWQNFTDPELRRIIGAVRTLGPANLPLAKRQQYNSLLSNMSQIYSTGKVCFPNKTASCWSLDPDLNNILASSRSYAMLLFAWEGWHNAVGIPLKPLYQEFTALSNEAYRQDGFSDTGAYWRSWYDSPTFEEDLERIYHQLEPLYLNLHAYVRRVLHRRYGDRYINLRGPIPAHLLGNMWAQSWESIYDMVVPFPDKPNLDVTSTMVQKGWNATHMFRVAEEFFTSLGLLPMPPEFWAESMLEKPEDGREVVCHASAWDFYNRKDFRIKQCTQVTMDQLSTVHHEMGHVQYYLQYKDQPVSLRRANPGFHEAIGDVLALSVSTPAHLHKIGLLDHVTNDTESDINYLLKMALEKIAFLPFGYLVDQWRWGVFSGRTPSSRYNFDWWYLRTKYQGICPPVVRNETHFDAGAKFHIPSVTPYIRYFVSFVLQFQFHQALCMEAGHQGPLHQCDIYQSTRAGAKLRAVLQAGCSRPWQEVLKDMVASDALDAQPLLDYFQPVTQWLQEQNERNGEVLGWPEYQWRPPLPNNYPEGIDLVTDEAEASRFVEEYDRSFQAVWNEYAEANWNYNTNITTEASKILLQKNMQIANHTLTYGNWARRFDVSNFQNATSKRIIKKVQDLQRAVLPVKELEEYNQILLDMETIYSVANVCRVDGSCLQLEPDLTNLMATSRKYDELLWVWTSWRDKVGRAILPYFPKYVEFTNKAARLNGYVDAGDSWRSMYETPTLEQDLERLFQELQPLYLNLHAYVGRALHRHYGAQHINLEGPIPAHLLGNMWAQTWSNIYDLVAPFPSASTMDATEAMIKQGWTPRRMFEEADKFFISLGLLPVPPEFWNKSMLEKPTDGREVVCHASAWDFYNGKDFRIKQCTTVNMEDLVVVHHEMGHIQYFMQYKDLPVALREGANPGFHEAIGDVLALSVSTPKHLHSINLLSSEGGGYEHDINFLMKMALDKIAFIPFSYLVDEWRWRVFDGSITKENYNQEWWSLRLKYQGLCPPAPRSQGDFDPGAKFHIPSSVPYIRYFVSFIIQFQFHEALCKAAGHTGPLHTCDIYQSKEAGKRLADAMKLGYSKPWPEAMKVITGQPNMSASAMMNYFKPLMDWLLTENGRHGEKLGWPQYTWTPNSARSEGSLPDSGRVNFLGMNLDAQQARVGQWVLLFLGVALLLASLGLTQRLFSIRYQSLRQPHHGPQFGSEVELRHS
ASSAY METRIC: pIC50
Formally, pIC50 is defined as -log10 of the concentration c, with c in mol/L.

Req: Give pIC50 for `CC(C)C[C@H](OP(=O)(O)CCCCc1ccccc1)C(=O)N1CCC[C@H]1C(=O)O` tested on Angiotensin-converting enzyme (Oryctolagus cuniculus, UniProt P12822).
Resp: 5.42

Req: Give pIC50 for `NCCCC[C@H](NP(=O)(O)CCCCc1ccccc1)C(=O)N1CCC[C@H]1C(=O)O` tested on Angiotensin-converting enzyme (Oryctolagus cuniculus, UniProt P12822).
Resp: 8.05

Req: Give pIC50 for `CCCC[C@H](OP(=O)(O)CCCCc1ccccc1)C(=O)N1CCC[C@H]1C(=O)O` tested on Angiotensin-converting enzyme (Oryctolagus cuniculus, UniProt P12822).
Resp: 6.74

Req: Give pIC50 for `CCCCCCCCCP(=O)(O)O[C@@H](CCCCN)C(=O)N1CCC[C@H]1C(=O)O` tested on Angiotensin-converting enzyme (Oryctolagus cuniculus, UniProt P12822).
Resp: 7.51

Req: Give pIC50 for `N=C(N)NCCC[C@H](OP(=O)(O)CCCCc1ccccc1)C(=O)N1CCC[C@H]1C(=O)O` tested on Angiotensin-converting enzyme (Oryctolagus cuniculus, UniProt P12822).
Resp: 7.72

Req: Give pIC50 for `CCCCCCCP(=O)(O)O[C@@H](CCCCN)C(=O)N1CCC[C@H]1C(=O)O` tested on Angiotensin-converting enzyme (Oryctolagus cuniculus, UniProt P12822).
Resp: 7.72

Req: Give pIC50 for `NCCCCC[C@H](OP(=O)(O)CCCCc1ccccc1)C(=O)N1CCC[C@H]1C(=O)O` tested on Angiotensin-converting enzyme (Oryctolagus cuniculus, UniProt P12822).
Resp: 6.96

Req: Give pIC50 for `C[C@H](CP(=O)(O)CCCCc1ccccc1)C(=O)N1CCC[C@H]1C(=O)O` tested on Angiotensin-converting enzyme (Oryctolagus cuniculus, UniProt P12822).
Resp: 6.66

Req: Give pIC50 for `CCCCP(=O)(O)O[C@@H](CCCCN)C(=O)N1CCC[C@H]1C(=O)O` tested on Angiotensin-converting enzyme (Oryctolagus cuniculus, UniProt P12822).
Resp: 7.02

Req: Give pIC50 for CCCCCC(C)P(=O)(O)O[C@@H](CCCCN)C(=O)N1CCC[C@H]1C(=O)O (stereo partly specified) tested on Angiotensin-converting enzyme (Oryctolagus cuniculus, UniProt P12822).
Resp: 7.21

Req: Give pIC50 for NCCCCC(CP(=O)(O)CCCCc1ccccc1)C(=O)N1CCC[C@H]1C(=O)O (stereo partly specified) tested on Angiotensin-converting enzyme (Oryctolagus cuniculus, UniProt P12822).
Resp: 7.07

Req: Give pIC50 for `NCCCC[C@H](OP(=O)(O)CCCCc1cccnc1)C(=O)N1CCC[C@H]1C(=O)O` tested on Angiotensin-converting enzyme (Oryctolagus cuniculus, UniProt P12822).
Resp: 7.03

Req: Give pIC50 for `C[C@H](OP(=O)(O)CCCCc1ccccc1)C(=O)N1CCC[C@H]1C(=O)O` tested on Angiotensin-converting enzyme (Oryctolagus cuniculus, UniProt P12822).
Resp: 7.23

Req: Give pIC50 for `NCCCC[C@H](OP(=O)(O)CCCCCc1ccccc1)C(=O)N1CCC[C@H]1C(=O)O` tested on Angiotensin-converting enzyme (Oryctolagus cuniculus, UniProt P12822).
Resp: 7.85

Req: Give pIC50 for `N=C(N)NCCCCC[C@H](OP(=O)(O)CCCCc1ccccc1)C(=O)N1CCC[C@H]1C(=O)O` tested on Angiotensin-converting enzyme (Oryctolagus cuniculus, UniProt P12822).
Resp: 7.49

Req: Give pIC50 for `O=C(O)[C@@H]1CCCN1C(=O)[C@H](CCc1ccccc1)OP(=O)(O)CCCCc1ccccc1` tested on Angiotensin-converting enzyme (Oryctolagus cuniculus, UniProt P12822).
Resp: 6.19
